assayedTarget: LMPTP-A (Low Molecular Weight Protein Tyrosine Phosphatase-A) enzyme (Homo sapiens (Human), UniProt P24666)
Sequence (P24666 whole entry): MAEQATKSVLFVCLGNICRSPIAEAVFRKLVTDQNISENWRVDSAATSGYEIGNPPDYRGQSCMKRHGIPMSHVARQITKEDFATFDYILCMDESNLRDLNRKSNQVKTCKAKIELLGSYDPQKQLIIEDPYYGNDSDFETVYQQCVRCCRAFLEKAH
methodDescription: LMPTP primary screening / LMPTP (OMFP) enzyme inhibition assay, fluorescence intensity
Format: biochemical
runParameters: purchased compound; read-out: LMPTP (OMFP) IC50
recordedEndpoint: pIC50
Recall that pIC50 is obtained by taking minus log10 of the concentration measured in molar.

For record c1ccc(-c2cc(NCCN3CCCCC3)c3ccccc3n2)cc1 the listed pIC50 is 5.54

====

assayedTarget: UniProt:Q9Y2R2
Sequence (Q9Y2R2 whole entry, species assumed): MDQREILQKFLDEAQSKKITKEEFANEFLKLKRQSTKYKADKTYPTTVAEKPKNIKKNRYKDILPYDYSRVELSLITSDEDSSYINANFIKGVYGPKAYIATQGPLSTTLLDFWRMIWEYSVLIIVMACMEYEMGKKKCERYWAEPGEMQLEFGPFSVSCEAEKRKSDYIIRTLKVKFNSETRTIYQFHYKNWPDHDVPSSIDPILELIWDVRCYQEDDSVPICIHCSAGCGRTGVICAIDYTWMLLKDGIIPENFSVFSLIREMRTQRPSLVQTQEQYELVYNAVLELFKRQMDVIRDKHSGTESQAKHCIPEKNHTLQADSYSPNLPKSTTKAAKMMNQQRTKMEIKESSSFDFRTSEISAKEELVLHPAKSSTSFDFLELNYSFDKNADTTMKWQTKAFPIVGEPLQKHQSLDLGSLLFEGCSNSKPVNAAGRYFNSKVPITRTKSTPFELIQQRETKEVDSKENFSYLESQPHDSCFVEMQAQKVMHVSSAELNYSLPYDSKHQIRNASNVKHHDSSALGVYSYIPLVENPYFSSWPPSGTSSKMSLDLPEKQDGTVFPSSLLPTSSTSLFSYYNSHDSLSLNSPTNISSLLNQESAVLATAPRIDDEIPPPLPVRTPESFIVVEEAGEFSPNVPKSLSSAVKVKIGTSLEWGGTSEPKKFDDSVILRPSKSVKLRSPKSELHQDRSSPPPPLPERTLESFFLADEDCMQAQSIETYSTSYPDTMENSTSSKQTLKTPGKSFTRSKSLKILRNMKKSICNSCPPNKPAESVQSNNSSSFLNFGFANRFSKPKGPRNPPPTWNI
methodDescription: LYP-1 phosphatase selectivity dose response assay
Assay type: biochemical
runParameters: n = 2; AID743309; read-out: Anti-target LYP-1 IC50
recordedEndpoint: IC50

For record COc1ccc(-c2cc(NCCCN3CCCCC3)c3ccccc3n2)cc1 [Compound D1] the listed IC50 is > 80 µM
